# Test system: NCI-H460
# Measurement Notes: NCI tumour cell line growth inhibition, 48 h
The source made the active and inactive calls. No stated cut-off is given here; in the data, active = GI50 up to about 1.1 µM and inactive = higher.
Form entry, call: pick from active, inactive

Solved entries:
CC1=NN(C(=O)c2ccc(Cl)cc2)C(=O)/C1=C/c1c(O)cc(O)c2ccccc12 ... inactive
O=C1NC(c2cccc(OCc3ccccc3)c2)Nc2ccccc21 (centres undefined) ... active
O=C(NCCC1CN(C(=O)OCc2ccccc2)c2ccccc21)OCc1ccccc1 (centres undefined) ... inactive

Input: Could you please tell me the result logged for "C/C(=N\Nc1nc2cc(F)ccc2s1)c1ccccn1" in this assay?
Output: active

Input: Now consider C=C1C(=O)OC2/C=C(/C)C3CC(O)C(C)(CC(OC(=O)/C(C)=C/C)C12)O3 (centres undefined) .
Output: inactive

Input: Now consider CC[C@]12C=CCN3CCC4(c5cc(/N=N/c6ccc([N+](=O)[O-])cc6)c(OC)cc5N(C)[C@H]4[C@@](O)(C(=O)OC)[C@@H]1OC(C)=O)[C@@H]32 (some centres undefined) .
Output: inactive

Input: Now consider "[N-]=[N+]=Nc1ncnc2c1sc(=S)n2-c1ccccc1" .
Output: inactive
